assay: BET inhibitor-based combinations targeting novel dependencies in MECOM-rearranged (r) AML: AML-194 cell line (AID 2202237; also: nearly all actives have a fitted effect of over 40% in size; also: potency is read from the fitted curve at half-maximal effect); conditions: AML-194 (MECOM-r AML) viability, CellTiter-Glo, 48 h; series mostly up to 46 µM
Results filed as inconclusive are left out. The source made the active and inactive calls. Calls follow the shape of the dose curve; as a rule, active = well fitted inhibition curve with a large enough effect; inconclusive = small, poorly fitted or top-dose-only effect; inactive = flat fitted curve, though single readings scatter.
METRIC_NAME: Potency

> print(dat)
                                    molecule  metric.name  experimental.result
 1  CCc1cccc2c3c([nH]c12)[C@@](CC)(CC(=O)O)OCC3      Potency             inactive
 2  COc1cc([C@H]2Oc3cc([C@H]4Oc5cc(O)cc(O)c5C(=O)[C@@H]4O)ccc3O[C@@H]2CO)ccc1O      Potency             inactive
 3  N#CN1CCC[C@@H](n2nc(-c3ccc(Oc4ccc(F)cc4F)cc3)c(C(N)=O)c2N)C1      Potency             inactive
 4  CC(C)N(CCCNC(=O)Nc1ccc(C(C)(C)C)cc1)C[C@H]1O[C@@H](n2cc(Br)c3c(N)ncnc32)[C@H](O)[C@@H]1O      Potency     23.5 µM (active)
 5  O=C(CCCCCCNC(=O)c1cnc(N(c2ccccc2)c2ccccc2)nc1)NO      Potency     9.34 µM (active)
 6  CC(C)(C)C(=O)CN1C(=O)[C@H](NC(=O)Nc2cccc(C(=O)O)c2)CN(C2CCCCC2)c2ccccc21      Potency             inactive
 7  Cc1cc(Nc2cc(NC(=O)c3c(Cl)cccc3Cl)ccn2)nc(N)n1      Potency    0.332 µM (active)
 8    CCCCOCCOc1nc(-c2ccc(C(=O)O)c(F)c2)sc1C      Potency             inactive
 9  NC(=O)C1CCCc2c1[nH]c1ccc(Cl)cc21 (centres undefined)      Potency             inactive
10  Cc1cc2c(cc1C1(c3ccc(C(=O)O)cn3)CC1)C(C)(C)CCC2(C)C      Potency             inactive
11  COc1cc(N2CCC(N)CC2)ccc1Nc1ncc(Cl)c(-c2c[nH]c3ccccc23)n1      Potency     10.5 µM (active)
12     COc1cc2c(cc1OCCCN1CCCC1)N=C(N)C21CCC1      Potency             inactive
13  Cc1cnc(NC(=O)C2=C(O)c3ccccc3S(=O)(=O)N2C)s1      Potency             inactive
14  c1ccc(CNc2nc(N3CCOc4ccccc43)nc3c2CCCC3)cc1      Potency             inactive
15             Nc1nnc(-c2cccc(Cl)c2Cl)c(N)n1      Potency             inactive
16          CC(=O)Nc1ccc(C(=O)Nc2ccccc2N)cc1      Potency     18.6 µM (active)
17  CC(C(=O)O)c1ccc(-c2ccccc2)c(F)c1 (centres undefined)      Potency             inactive
18  CC(C)S(=O)(=O)c1ccc2nccc(Nc3ccc4scnc4c3)c2c1      Potency             inactive
19  CN1CCN(C2CCN(C(=O)Nc3cc(Oc4ccc(NC(=O)C5(C(=O)Nc6ccc(F)cc6)CC5)c(F)c4)ccn3)CC2)CC1      Potency     11.8 µM (active)

Values from PubChem BioAssay (NCATS)
